Assay: Primary qHTS for delayed death inhibitors of the malarial parasite plastid, 96 hour incubation
Conditions: P. falciparum luciferase reporter growth; series mostly up to 28.7 µM
Out of some 320,000 compounds screened, about 22,000 (6.9%) were called active. Not shown: some 27% with an inconclusive outcome. Calls follow the shape of the dose curve; as a rule, active = well fitted inhibition curve with a large enough effect; inconclusive = small, poorly fitted or top-dose-only effect, or another doubt; inactive = no such curve, though single readings can be large or run the other way. Only a selection was taken, and actives are over-represented in it overall.
Outcomes: 1 = active, -1 = inactive

1) CC(C)(C)C(=O)Nc1ccc(-c2cn3cccnc3n2)cc1 = -1
2) Nc1nc(-c2ccccc2)cc(-c2ccccc2)n1 = -1
3) Nc1cccc(-c2cc(-c3ccccc3)nc(-c3cccc(N)c3)n2)c1 = 1
4) CCOc1ccc(NC(=O)CN(C)C(=O)c2c(C)noc2C)cc1OCC = -1
5) CCOC(=O)c1c(C)[nH]c(C(=O)NCc2ccccc2OC)c1C = -1
6) CCOC(=O)c1c(C)[nH]c2c1-c1ccccc1C(=O)C2=O = 1

---

Assay: Primary qHTS for delayed death inhibitors of the malarial parasite plastid, 96 hour incubation
Conditions: P. falciparum luciferase reporter growth; series mostly up to 28.7 µM
The whole screen tested about 320,000 compounds, of which about 22,000 (6.9%) were called active. Roughly 27% stayed inconclusive and do not appear here. Calls follow the shape of the dose curve; as a rule, active = well fitted inhibition curve with a large enough effect; inconclusive = small, poorly fitted or top-dose-only effect, or another doubt; inactive = no such curve, though single readings can be large or run the other way. This is one part of a sample in which actives are shown more often than they occur.
Outcomes: active, inactive

1) COC(=O)c1ccccc1NC(=O)C1CCN(C(=O)N2CCOc3ccccc32)CC1 = inactive
2) CCCCN(C(=O)c1ccc(S(=O)(=O)N2CCOCC2)cc1)C1CCS(=O)(=O)C1 (stereo not given) = inactive
3) O=C(CSc1nc(Nc2ccccc2)nc(N2CCOCC2)n1)Nc1cc(Cl)ccc1O = active
4) O=C(CN1CCOCC1)Nc1cc(Cl)ccc1Cl = inactive
5) O=C(COC(=O)CCCN1C(=O)c2cccc3cccc(c23)C1=O)NC1CCS(=O)(=O)C1 (stereo not given) = inactive

---

Test: Primary qHTS for delayed death inhibitors of the malarial parasite plastid, 96 hour incubation
Settings: P. falciparum luciferase reporter growth; series mostly up to 28.7 µM
Out of some 320,000 compounds screened, about 22,000 (6.9%) were called active. Another 27% or so got no clear call; they are omitted. The call rests on the fitted dose curve; in most records, active means well fitted inhibition curve with a large enough effect; inconclusive means small, poorly fitted or top-dose-only effect, or another doubt; inactive means no such curve, though single readings can be large or run the other way. This excerpt belongs to a sample that is enriched for actives.
Outcomes: active, inactive

1. O=C(c1cc(COc2cccc(C(F)(F)F)c2)on1)N1CCSCC1 = inactive
2. Cc1ccccc1Nc1nc(-c2cccnc2)cs1 = inactive
3. COCCN1C(=O)N[C@@H](c2ccccc2)C(C(=O)OC)=C1C = inactive
4. CC1=C(C(=O)OC(C)(C)C)C(c2ccc(Br)cc2)NC(=O)N1CCCC(=O)O (stereo unspecified) = inactive
5. CC1=C(C(=O)OCc2ccccc2)C(c2ccc(C(F)(F)F)cc2)NC(=O)N1CCCCCC(=O)O (stereo unspecified) = active
6. O=C(COC(=O)Cn1[nH]c(=O)c2ccccc2c1=O)Nc1ncc(Cl)cc1Cl = inactive

---

Assay: Primary qHTS for delayed death inhibitors of the malarial parasite plastid, 96 hour incubation; as to activity change, negative = inhibition: % is scaled to controls: 0 for no effect and ±100 for the full control effect
Conditions: P. falciparum luciferase reporter growth; series mostly up to 28.7 µM
Among all 320,000 compounds or so, about 22,000 (6.9%) were called active. Inconclusive results (about 27%) are left out. For the sample, actives were picked, then their nearest neighbours and some compounds at random.
Recorded measurements of activity change, negative = inhibition, one per entry
Property label: activity change, negative = inhibition

1) COc1ccc(-c2cn3cccnc3n2)cc1 = -27.3% [at 5.75 µM] (inactive)
2) CC(C)N1C(=O)C2C(C(=O)NC3CCCCC3)C3C=CC2(O3)C1C(=O)NC1CCCC1 (stereo unspecified) = -1.06% [at 5.75 µM] (inactive)
3) O=C(Cc1ccc(Cl)cc1)NCc1nc(-c2ccccc2)no1 = -24.9% [at 1.15 µM] (inactive)
4) Cc1ccc2[nH]c(=O)c(-c3nc4c(C)cccn4c3NCc3ccco3)cc2c1 = 10.9% [at 5.75 µM] (inactive)
5) Cc1cc([N+](=O)[O-])ccc1NC(=O)c1ccc(NC(=O)C(C)C)cc1 = 18% [at 5.75 µM] (inactive)
6) O=C(NCc1cccnc1)c1nc(-c2cccs2)no1 = 112% [at 5.75 µM] (inactive)
7) O=c1cc(CSc2ccccn2)nc(N2CCN(c3ccccc3)CC2)[nH]1 = -8.4% [at 5.75 µM] (inactive)
8) C=CCn1c(SCc2cc(C(=O)OC)c(C)o2)nnc1-c1ccncc1 = -0.417% [at 5.75 µM] (inactive)
9) Cc1nc2c(c(=O)n1Cc1ccco1)c1nc3ccccc3nc1n2Cc1ccccc1 = 27.6% [at 5.75 µM] (inactive)
10) N/C(=N\OC(=O)Cc1ccccc1[N+](=O)[O-])c1ccc(Br)cc1 = 12.7% [at 5.75 µM] (inactive)
11) c1n[nH]c(NCc2ccc3c(c2)OCO3)n1 = 2.18% [at 5.75 µM] (inactive)
